Hey, just so you know, these numbers are from ChEMBL document CHEMBL4689842.

System: Fibroblast
PROCEDURE SUMMARY: Incucyte cell viability with human fibroblast; also: filed as whole numbers so only -1 and 0 and 1 occur
Format: toxicity, cell-based
PROTOCOL CONDITIONS: 12 h, 10 µM, compound concentration 10 uM, replicate number 1, timepoint 12 hours
MEASURED ENDPOINT: Growth Rate
Respond with the number and no other words.

Example entries begin here.
CCCS(=O)(=O)Nc1ccc(F)c(C(=O)c2c[nH]c3ncc(Cl)cc23)c1F | 0
O=C(Cc1ccc(-c2ccc(OCCN3CCOCC3)cc2)cn1)NCc1ccccc1 | 0
C=CCn1c(=O)c2cnc(Nc3ccc(N4CCN(C)CC4)cc3)nc2n1-c1cccc(C(C)(C)O)n1 | 0

Can you look up the measured Growth Rate of CC[C@@H]1CN2C(=O)N(C)c3nc(-c4ccccc4)[nH]c3C2=N1.Cl for me? 1

---

System: Fibroblast
PROCEDURE SUMMARY: Incucyte cell viability with human fibroblast; also: filed as whole numbers so only -1 and 0 and 1 occur
Assay type: toxicity, cell-based
PROTOCOL CONDITIONS: 12 h, 10 µM, compound concentration 10 uM, replicate number 2, timepoint 12 hours
Quick list: Growth Rate per entry.
Respond with the number and no other words.

COc1ccc(-c2ccc3c(N4CCOCC4)nc(N4C[C@@H](C)O[C@@H](C)C4)nc3n2)cc1CO [Ku-0063794] | 0
CN1C2CCC1CC(OC(c1ccc(F)cc1)c1ccc(F)cc1)C2.Cl (stereo not drawn) | 0
CN([C@@H](Cc1ccc(OS(=O)(=O)c2cccc3cnccc23)cc1)C(=O)N1CCN(c2ccccc2)CC1)S(=O)(=O)c1cccc2cnccc12 | 0
CC1(C)CCC(C)(C)c2cc(NC(=O)c3ccc(C(=O)O)cc3)ccc21 [TAMIBAROTENE] | 1
COCC(=O)NC/C=C/c1ccc2ncnc(Nc3ccc(Oc4ccc(C)nc4)c(C)c3)c2c1 [CP-724714] | 0

Can you look up the measured Growth Rate of Cc1nc(NC(=O)N2CCC[C@H]2C(N)=O)sc1-c1ccnc(C(C)(C)C(F)(F)F)c1 [ALPELISIB] for me? 0

Can you look up the measured Growth Rate of NS(=O)(=O)c1c(Cl)ccc(NC(=O)Nc2cccc(Cl)c2Cl)c1O for me? 0

Can you look up the measured Growth Rate of Nc1cc(F)ccc1NC(=O)/C=C/c1cnn(C/C=C/c2ccccc2)c1 for me? 0

---

Tested on: HEK-293T
PROCEDURE SUMMARY: Multiplex assay against HEK293T;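 as to Population Tubulin-Different-Phenotype (%): share of the cells with healthy nuclei that show this phenotype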
Format: toxicity, cell-based
PROTOCOL CONDITIONS: human, 12 h, 10 µM, compound concentration 10 uM, replicate 1
MEASURED ENDPOINT: Population Tubulin-Different-Phenotype (%)

Example entries begin here.
O=C(Cc1ccc(-c2ccc(OCCN3CCOCC3)cc2)cn1)NCc1ccccc1 | 27%
Cl.O=c1c2cccn2c2ccccc2n1CCCN1CCC(c2ccc(Cl)cc2)CC1 | 94%
COc1cccc2cc(-c3nc([C@H]4CC[C@H](C(=O)O)CC4)n4ncnc(N)c34)[nH]c12 | 2%
COc1ccc(S(=O)(=O)N(CCO)c2ccccc2CN(C)C/C=C/c2ccc(Cl)cc2)cc1.O=P(O)(O)O | 25%
CCN1CCN(c2ccc(Nc3cc(N(C)C(=O)Nc4c(Cl)c(OC)cc(OC)c4Cl)ncn3)cc2)CC1 | 13%

Can you look up the measured Population Tubulin-Different-Phenotype (%) of CN1CCC(=C2c3ccccc3CC(=O)c3sccc32)CC1.O=C(O)/C=C/C(=O)O [KETOTIFEN FUMARATE] for me? 97%

Can you look up the measured Population Tubulin-Different-Phenotype (%) of Cc1ccc(C(=O)Nc2cccc(C(F)(F)F)c2)cc1Nc1nc(-c2cccnc2)nc2c1cnn2C for me? 91%

Can you look up the measured Population Tubulin-Different-Phenotype (%) of CN1CCN(C(=O)C(C)(C)c2ccc(C(=O)Nc3cn4cc(-c5cc(C(C)(C)C)cc(C(C)(C)C)c5)ccc4n3)cc2)CC1 for me? 30%

---

Tested on: Fibroblast
PROCEDURE SUMMARY: Multiplex assay against human fibroblast
Format: toxicity, cell-based
PROTOCOL CONDITIONS: 12 h, 10 µM, compound concentration 10 uM, replicate 2
Quick list: Population Mitotic Cells (%) per entry.
Field format: number, assumed %, no unit text.

Example entries begin here.
CN1CCC(=C2c3ccccc3CC(=O)c3sccc32)CC1.O=C(O)/C=C/C(=O)O [KETOTIFEN FUMARATE] | 66
COCC(=O)NC/C=C/c1ccc2ncnc(Nc3ccc(Oc4ccc(C)nc4)c(C)c3)c2c1 | 20
CCCn1c(=O)c2[nH]c(-c3cnn(Cc4cccc(C(F)(F)F)c4)c3)nc2n(CC)c1=O | 50

// moving on: another record for Population Mitotic Cells (%)
Can you look up the measured Population Mitotic Cells (%) of CCc1cccc(CC)c1NC(=O)c1nn(C)c2c1CCc1cnc(Nc3ccc(C(=O)NC4CCN(C)CC4)cc3OC(F)(F)F)nc1-2 for me? 53

---

Quick list: Population Mitotic Cells (%) per entry.
Test system: HEK-293T
PROCEDURE SUMMARY: Multiplex assay against HEK293T
Assay type: toxicity, cell-based
PROTOCOL CONDITIONS: human, 24 h, 1 µM, compound concentration 1 uM, replicate 2
Field format: number, assumed %, no unit text.

Example entries begin here.
CN[C@@H]1C[C@H]2O[C@@](C)([C@@H]1OC)n1c3ccccc3c3c4c(c5c6ccccc6n2c5c31)C(=O)NC4 | 71
CCOc1cc(C(=O)N2CCC(N3CCN(C)CC3)CC2)ccc1Nc1ncc2c(n1)N(C1CCCC1)c1ccccc1C(=O)N2C | 33
S=C(NCCCc1c[nH]cn1)NCCCN(Cc1ccc(Cl)c(Cl)c1)c1ccc(Br)cn1 | 79

Can you look up the measured Population Mitotic Cells (%) of Cn1nc(C(F)(F)F)cc1-c1cnc(N2CCc3cc(S(=O)(=O)Nc4c(F)cc(Cl)cc4F)cc(N4CCCC4=O)c32)nc1 for me? 93

---

Tested on: U2OS
PROCEDURE SUMMARY: Multiplex assay against U2OS
Format: toxicity, cell-based
PROTOCOL CONDITIONS: human, 12 h, 1 µM, compound concentration 1 uM, replicate 2
Quick list: Population Normal (%) per entry.
Field format: number, assumed %, no unit text.

Example entries begin here.
CCn1cc(-c2ccnc3[nH]c(-c4cccc(CN(C)C)c4)cc23)c(-c2ccc(NC(=O)N(C)C)cc2)n1 | 85
CCN1CCN(c2ccc(Nc3cc(N(C)C(=O)Nc4c(Cl)c(OC)cc(OC)c4Cl)ncn3)cc2)CC1 | 89
COc1cc(N2CCN(C)CC2)ccc1Nc1ncc2c(n1)N(C)c1ccccc1C(=O)N2C | 95
Cl.O=c1c2cccn2c2ccccc2n1CCCN1CCC(c2ccc(Cl)cc2)CC1 | 91
Cn1nc(C(F)(F)F)cc1-c1cnc(N2CCc3cc(S(=O)(=O)Nc4c(F)cc(Cl)cc4F)cc(N4CCCC4=O)c32)nc1 | 84
CCc1cccc(CC)c1NC(=O)c1nn(C)c2c1CCc1cnc(Nc3ccc(N4CCN(C)CC4)cc3OC)nc1-2 | 85
O=C(Nc1ccc(-n2nc(-c3cccnc3)cc2C(F)(F)F)cn1)c1ccc(-c2ccccc2)c(F)c1 | 91

Can you look up the measured Population Normal (%) of COc1cccc2cc(-c3nc([C@H]4CC[C@H](C(=O)O)CC4)n4ncnc(N)c34)[nH]c12 for me? 92

---

Quick list: Population Apoptotic (%) per entry.
Tested on: U2OS
PROCEDURE SUMMARY: Multiplex assay against U2OS
Format: toxicity, cell-based
PROTOCOL CONDITIONS: human, 24 h, 10 µM, compound concentration 10 uM, replicate 1
Field format: number, assumed %, no unit text.

Can you look up the measured Population Apoptotic (%) of CN(C)C(=O)C(CCN1CCC(O)(c2ccc(Cl)cc2)CC1)(c1ccccc1)c1ccccc1.Cl [LOPERAMIDE HYDROCHLORIDE] for me? 92

Can you look up the measured Population Apoptotic (%) of CCCn1c(=O)c2[nH]c(-c3cnn(Cc4cccc(C(F)(F)F)c4)c3)nc2n(CC)c1=O for me? 64

Can you look up the measured Population Apoptotic (%) of COCC(=O)NC/C=C/c1ccc2ncnc(Nc3ccc(Oc4ccc(C)nc4)c(C)c3)c2c1 for me? 60

Can you look up the measured Population Apoptotic (%) of CCn1cc(-c2ccnc3[nH]c(-c4cccc(CN(C)C)c4)cc23)c(-c2ccc(NC(=O)N(C)C)cc2)n1 for me? 65

Can you look up the measured Population Apoptotic (%) of CNc1cc(Oc2cc(C(=O)Nc3cc(N4CCN(C)CC4)cc(C(F)(F)F)c3)ccc2C)ncn1 for me? 93

Can you look up the measured Population Apoptotic (%) of O=C(Nc1ccc(Cl)cc1)Nc1cccc(-c2cccc(N3CCCC3)n2)c1 for me? 83

Can you look up the measured Population Apoptotic (%) of O=C(Nc1ccc(-n2nc(-c3cccnc3)cc2C(F)(F)F)cn1)c1ccc(-c2ccccc2)c(F)c1 for me? 34

Can you look up the measured Population Apoptotic (%) of CCCS(=O)(=O)c1nc(NC2CC2)cc(-c2ccc3c(ccn3C3CC(C)(C)NC(C)(C)C3)c2)n1 for me? 86

Can you look up the measured Population Apoptotic (%) of CN1C2CCC1CC(OC(c1ccc(F)cc1)c1ccc(F)cc1)C2.Cl (centres undefined) for me? 62
